B1: tRNA (parent)
chain: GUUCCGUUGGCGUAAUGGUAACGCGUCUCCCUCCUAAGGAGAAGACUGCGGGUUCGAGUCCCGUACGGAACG

Variants of: B1
METHOD: yeast fitness relative to wild type (ratio to wild type); higher = fitter; tRNA-Arg(CCU), competitive growth, 37 C, YPD
This sample holds only a part of the variants without activity.
Catalogue of variants with associated yeast fitness
Simply state the number, no unit and no words.

IN: Suppose we examine the variant GUUCCGUUGACGUAAUGGUAACGCGUCUCCCUCCUAAGGAGAUGACUGCGGGUUCGAGUCCCGUACGGAACG [G10A A43U] ; what yeast fitness value has been reported?
OUT: 0.781

IN: Try the variant GUUCCGUUGGCGUAAUGGUAACGCGUCUCCCUCCUCGGGAGAAGACUGCGGGUUCGAGUCCCGUACGGAACG [A36C A37G]
OUT: 0.611

IN: Follow-up entry: GUUCCGUUGGCGUAACGGUAACGCGUCUCCCUCGUAAGGAGAAGACUGCGGGUUCGAGUCCCGUACGGAACG [U16C C34G]
OUT: 0.609

IN: Please answer likewise for GUUCCGUUGGCGUAAUGGUAACGCGUCUCCGUCCUAAGGAGAAGACUGCGGGUUCGAGUCCCGUACGCAACG [C31G G68C]
OUT: 0.684

IN: Repeat with GUUCCGUUGGCGUUAUGGUAACGCGUCUCCGUCCUAAAGAGAAGACUGCGGGUUCGAGUCCCGUACGGAACG [A14U C31G G38A]
OUT: 0.657

IN: # iterate: GUUCCGUUGGCGUAAAGGCAACGCGUCUCCCUCCUAAGGAGAAGACUGCGGGUUCGAGUCCCGUACGGAACG [U16A U19C]
OUT: 1.03

IN: Same thing, different variant: GUUCCGUUGGCGUAACGGUAACGCGUCUCCCUCUUAAGGAGAAGACUGCGGGUUCGAGUCCCGUACGGAACG [U16C C34U]
OUT: 0.759

IN: # iterate: GUUCGGUUGGCGUAAUGGUAACGCGUCUCCGUCCUAAGGAGAAGACUGCGGGUUCGAGUCCCGUACGGAACG [C5G C31G]
OUT: 0.824

IN: Field entry: GUUCCGUUGGCGUAAUGGCAACGCGUCUCCCUCCUAAGGAGAAGACUGCGGGUACGAGUCCCGUACGGAACG [U19C U54A]
OUT: 0.559

IN: Okay, and GUUCCGUUGGCGUAAUGGUAACGCGUCUCCCUCCUAAGCAGAAGACUCCGGGUUCGAGUCCCGUACGGAACG [G39C G48C] ?
OUT: 0.688

IN: Try the variant GUUCCGUUGGCGUAAUGGAAACGCGUCUCCCUCCUAAGGAGAAGACUGCGGCUUCGAGUCCCGUACGGAACG [U19A G52C]
OUT: 0.656

IN: Also need GUUCCGUUGGCGUCAUGGUAACGCGUCUCCCUCCUAAGGAGAAGACUGCGGGUUGGAGUCCCGUACGGAACG [A14C C55G] , thanks.
OUT: 0.827

IN: Do the same for GUUCCGUUGGCGUAAUGGUAACGCGUCUCCCUCCUAAGGAGACGACUGAGGGUUCGAGUCCCGUACGGAACG [A43C C49A] please
OUT: 0.631

IN: Please give the result for GUUCCGUUGGCGUAAUGGUAACGCGACUCCCUCCUAAGGGGAAGACUGCGGGUUCGAGUCCCGUACGGAACG [U26A A40G] too.
OUT: 0.657
